- tested.target: Avi-KRAS G12D (1-169) GppNHp/RAF1 RBD-3×FLAG (52-151) (Homo sapiens, UniProt P01116, G12D)
- Construct: Avi-KRAS G12D (1-169) GppNHp
- Sequence (P01116 1-169 isoform P01116-2 G12D limits assumed): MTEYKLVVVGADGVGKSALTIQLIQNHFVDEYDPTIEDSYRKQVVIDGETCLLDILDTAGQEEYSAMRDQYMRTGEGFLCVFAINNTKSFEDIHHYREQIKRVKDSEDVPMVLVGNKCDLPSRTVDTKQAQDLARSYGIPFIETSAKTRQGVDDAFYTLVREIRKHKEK
- assay.comment: HTRF Raf1-KRAS G12D-GppNHp disruption assay
- Assay type: biochemical
- condition.notes: 1 h incubation
metric: IC50

Reference set (8 entries):
compound	result
CN(c1nc(OCC23CCCN2CCC3)nc2c(F)c(-c3ccc(F)c4sc(N)nc34)c(C(F)(F)F)cc12)C1CC2CC[C@@H](C1)N2 (stereo partly drawn)	1000 to 10000 nM
CN(c1nc(OC[C@@]23CCCN2C[C@H](F)C3)nc2cc(-c3ccc(F)c4sc(N)c(C#N)c34)c(C(F)(F)F)cc12)[C@H]1CNC[C@@H]1F	1000 to 10000 nM
CN(c1nc(OC[C@@]23CCCN2C[C@H](F)C3)nc2c(F)c(-c3ccc(F)c4sc(N)c(C#N)c34)ccc12)[C@@H]1CCNC1	100 to 1000 nM
Nc1nc2c(-c3c(C(F)(F)F)cc4c(N5C[C@H]6CC[C@@H](C5)N6)nc(OCC5(CN6CCOCC6)CC5)nc4c3F)ccc(F)c2s1	100 to 1000 nM
CN(c1nc(OCC23CCCN2CCC3)nc2c(F)c(-c3ccc(F)c4sc(N)nc34)c(C(F)(F)F)cc12)[C@H]1CC[C@H](N)CC1	1000 to 10000 nM
CN1CCC[C@H]1COc1nc(NC2CCNCC2)c2cc(Cl)c(-c3ccc(F)c4sc(N)nc34)c(F)c2n1	1000 to 10000 nM
CN(c1nc(OCC23CCCN2CCC3)nc2c(F)c(-c3ccc(F)c4sc(N)nc34)c(C(F)(F)F)cc12)[C@@H]1CCN(C(=O)CN)C1 (atropisomer, axis not shown) [Compound 277]	1000 to 10000 nM
Nc1nc2c(-c3c(C(F)(F)F)cc4c(NC5CN(C(=O)C6CN6)C5)nc(OCC56CCCN5CCC6)nc4c3F)ccc(F)c2s1 (stereo not drawn)	1000 to 10000 nM

-- ask # IC50 lookup, item Nc1nc2c(-c3c(C(F)(F)F)cc4c(N5CC6CCC(C5)N6)nc(OC[C@@]56CCCN5C[C@H](F)C6)nc4c3F)ccc(F)c2s1 (single isomer, unassigned) [Compound 245]
-- reply ≤ 100 nM

====

- tested.target: GDP KRAS G12D (Homo sapiens, UniProt P01116, G12D)
- Sequence (P01116 1-188 isoform P01116-2 G12D): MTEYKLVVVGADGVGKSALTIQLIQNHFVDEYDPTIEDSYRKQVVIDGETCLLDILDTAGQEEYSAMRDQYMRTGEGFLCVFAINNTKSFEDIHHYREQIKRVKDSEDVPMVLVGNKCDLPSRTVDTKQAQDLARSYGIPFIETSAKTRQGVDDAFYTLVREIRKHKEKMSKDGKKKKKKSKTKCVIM
- assay.comment: SPR binding affinity, GDP KRAS G12D
- condition.notes: GDP-bound KRAS G12D
metric: Kd

compound	Kd
Nc1nc2c(-c3c(Cl)cc4c(N5CC6CCC(C5)N6)nc(OCC56CCCN5CCC6)nc4c3F)ccc(F)c2s1	≤ 0.1 µM
N#Cc1c(N)sc2c(F)ccc(-c3c(C(F)(F)F)cc4c(N5C[C@H]6CC[C@@H](C5)N6)nc(OC[C@@]56CCCN5C[C@H](F)C6)nc4c3F)c12	≤ 0.1 µM
Nc1nc2c(-c3c(C(F)(F)F)cc4c(N5CC6CCC(C5)N6)nc(OC[C@@]56CCCN5C[C@H](F)C6)nc4c3F)ccc(F)c2s1 (single isomer, unassigned) [Compound 246]	≤ 0.1 µM
CN(c1nc(OC[C@@]23CCCN2C[C@H](F)C3)nc2c(F)c(-c3ccc(F)c4sc(N)nc34)c(C(F)(F)F)cc12)[C@H]1CNC[C@H]1F	≤ 0.1 µM
CN1CCC[C@H]1COc1nc(NCCN)c2cc(Cl)c(-c3ccc(F)c4sc(N)nc34)c(F)c2n1	≤ 0.1 µM

-- ask # Kd lookup, item Nc1nc2c(-c3c(C(F)(F)F)cc4c(N5CC6CCC(C5)N6)nc(OC[C@@]56CCCN5C[C@H](F)C6)nc4c3F)ccc(F)c2s1 [Compound 219]
-- reply ≤ 0.1 µM

-- ask Follow-up item: CN1CCC[C@H]1COc1nc(N2CCN[C@@H](CC#N)C2)c2cc(Cl)c(-c3ccc(F)c4sc(N)nc34)c(F)c2n1
-- reply 0.1 to 1 µM

-- ask Follow-up item: NCCNc1ncnc2c(F)c(-c3ccc(F)c4sc(N)nc34)c(Cl)cc12
-- reply 1 to 10 µM

-- ask Follow-up item: Nc1nc2c(-c3c(C(F)(F)F)cc4c(N[C@@H]5CCNC5)nc(OC[C@@]56CCCN5C[C@H](F)C6)nc4c3F)ccc(F)c2s1 (atropisomer, axis not shown) [Compound 248]
-- reply ≤ 0.1 µM

-- ask Follow-up item: Nc1nc2c(-c3c(C(F)(F)F)cc4c(N5CC6CCC(C5)N6)nc(OCC56CCCN5CCC6)nc4c3F)ccc(F)c2s1
-- reply ≤ 0.1 µM

-- ask Follow-up item: N#Cc1c(N)sc2c(F)ccc(-c3c(C(F)F)cc4c(N5C[C@H]6CC[C@@H](C5)N6)nc(OC[C@@]56CCCN5C[C@H](F)C6)nc4c3F)c12
-- reply ≤ 0.1 µM

-- ask Follow-up item: CN1CCC[C@H]1COc1nc(N2CCN(C(=O)CN)[C@@H](CC#N)C2)c2cc(Cl)c(-c3ccc(F)c4sc(N)nc34)c(F)c2n1
-- reply 0.1 to 1 µM

-- ask Follow-up item: Nc1nc2c(-c3c(C(F)(F)F)cc4c(N[C@@H]5CCNC5)nc(OC[C@@]56CCCN5C[C@H](F)C6)nc4c3F)ccc(F)c2s1 (atropisomer, axis not shown) [Compound 249]
-- reply ≤ 0.1 µM

-- ask Follow-up item: CN1CCC[C@H]1COc1nc(NC2CNC2)c2cc(Cl)c(-c3ccc(F)c4sc(N)nc34)c(F)c2n1
-- reply ≤ 0.1 µM

-- ask Follow-up item: Nc1nc2c(-c3c(C(F)(F)F)cc4c(N5CC6CCC(C5)N6)nc(OC[C@@]56CCCN5C[C@H](F)C6)nc4c3F)ccc(F)c2s1 (single isomer, unassigned) [Compound 245]
-- reply ≤ 0.1 µM

-- ask Follow-up item: N#Cc1c(N)sc2c(F)ccc(-c3c(Cl)cc4c(N5C[C@H]6CC[C@@H](C5)N6)nc(OC[C@@]56CCCN5C[C@H](F)C6)nc4c3F)c12
-- reply ≤ 0.1 µM

-- ask Follow-up item: N#CC[C@H]1CN(c2ncnc3c(F)c(-c4ccc(F)c5sc(N)nc45)c(Cl)cc23)CCN1C(=O)CN
-- reply 1 to 10 µM
